B1: glmS ribozyme (parent)
chain: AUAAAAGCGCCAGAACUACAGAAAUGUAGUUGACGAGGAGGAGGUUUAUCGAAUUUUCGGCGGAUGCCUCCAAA

Variants of: B1
Experiment: self-cleavage kobs at 10000 uM GlcN6P; higher = faster cleavage; RNA array
Conditions: with glucosamine-6-phosphate
Fewer inactive variants are shown than the library holds.
recorded metric: self-cleavage kobs at 10000 uM GlcN6P (s⁻¹)

> print(dat)
                      residue.change  units.label  qualifier  measured.number
 1                     A6U G37C C68U          s⁻¹          <            1e-05
 2                         G40U C67U          s⁻¹          =         6.64e-05
 3                         C34A C67A          s⁻¹          <            1e-05
 4                    G43C U46A A48C          s⁻¹          <            1e-05
 5                         C34G G59A          s⁻¹          <            1e-05
 6                    G29C C67A C71U          s⁻¹          =         0.000106
 7                         A14C G60U          s⁻¹          <            1e-05
 8                         A12G G66U          s⁻¹          =         9.94e-05
 9                         A52C C70U          s⁻¹          =         4.63e-05
10                         C16A U54C          s⁻¹          =          0.00194
11                    C34A C61A G63U          s⁻¹          <            1e-05
12                         G29C U49A          s⁻¹          <            1e-05
13                         U56G G66A          s⁻¹          =          0.00875
14                         C34G G63C          s⁻¹          <            1e-05
15                    A12U G32U A53G          s⁻¹          =         0.000231
16     A14G C16A U17C A18U C19A A20C          s⁻¹          =          0.00427
17                         A39U G44C          s⁻¹          =         0.000212
18                         C34A G44A          s⁻¹          <            1e-05
19                         G35A U49A          s⁻¹          <            1e-05
20                         G43A C58A          s⁻¹          <            1e-05
21                         A12G U69C          s⁻¹          =           0.0007
22                    G40A G51U C68U          s⁻¹          <            1e-05
23                    C16U G40U C68G          s⁻¹          <            1e-05
24                          A6G G35A          s⁻¹          <            1e-05
25                         A14U U54G          s⁻¹          =          0.00759
26                    A14U A15U G40U          s⁻¹          =         0.000149
27                         G43C U49C          s⁻¹          <            1e-05
28                          A6G C10A          s⁻¹          <            1e-05
29                         A12U C50U          s⁻¹          =          0.00036
30                    U46G A53U U69C          s⁻¹          =          0.00109
31                         G35U A48G          s⁻¹          <            1e-05
32  C8G G9C C16A G38A G40U U49G U57C          s⁻¹          <            1e-05
33                         G44C G62A          s⁻¹          <            1e-05
34                         G43U G44U          s⁻¹          <            1e-05
35                         G37A U54A          s⁻¹          =          0.00478
36          C11G A36C G37C U46G G60A          s⁻¹          <            1e-05
37                         C16G C71U          s⁻¹          =          0.00248
38                         A15U U46A          s⁻¹          =         0.000303
39               G40A C50U U54C C68U          s⁻¹          <            1e-05
40                    A33U A39C A48C          s⁻¹          <            1e-05
41               A42U G44C G62U C70G          s⁻¹          <            1e-05
42                         A12C C67G          s⁻¹          =          0.00265
43                         U31C G51U          s⁻¹          <            1e-05
44                         A12G G37U          s⁻¹          <            1e-05
45                    C11U C34A G43C          s⁻¹          <            1e-05
46                         C10A G40U          s⁻¹          <            1e-05
47                    A15G U46G C67G          s⁻¹          =         0.000339
48                          C8U G63A          s⁻¹          <            1e-05
49                         A42G G63A          s⁻¹          <            1e-05
50                    A12U A42G C58G          s⁻¹          =          0.00079
51                         U46C G62U          s⁻¹          <            1e-05
52                         C16G U69C          s⁻¹          =         0.000195
53                G7A U30G A33G U69G          s⁻¹          =         0.000162
54                          A6U C71G          s⁻¹          =         2.69e-05
55                    C34A G37A A48U          s⁻¹          <            1e-05
56                         U65G G66A          s⁻¹          =          0.00183
57                         A42G C70A          s⁻¹          =         0.000155
58                         C10A A52C          s⁻¹          <            1e-05
59                         C58U U69C          s⁻¹          =         2.52e-05
60                          G9C U54G          s⁻¹          <            1e-05
61                         C16G U30A          s⁻¹          =         0.000372
62                         G40A G51C          s⁻¹          <            1e-05
63                         G13C A15U          s⁻¹          =         0.000103
64                    A12G U30G C58A          s⁻¹          =         0.000483
65                         U30G G60U          s⁻¹          <            1e-05
66                         C58G G62U          s⁻¹          <            1e-05
67               C11U A48G C50U C71U          s⁻¹          <            1e-05
68                         A48G A64U          s⁻¹          <            1e-05
69                     A6U G59C C71G          s⁻¹          <            1e-05
70                         A14G U65C          s⁻¹          =          0.00124
71               C16U A53U U54G C58A          s⁻¹          =         0.000172
72                    A15C G41U G66A          s⁻¹          =         0.000194
73                    G29C A64G C70U          s⁻¹          =         3.15e-05
74                    G38C A42G A64G          s⁻¹          <            1e-05
75                    U31A G35C A36U          s⁻¹          <            1e-05
76               A33U G37C U45C A64C          s⁻¹          <            1e-05
77                    G29C U31C G66A          s⁻¹          =         0.000105
78                         G41C U47A          s⁻¹          =         0.000243
79                         A48C U69G          s⁻¹          <            1e-05
80                         A12G C50U          s⁻¹          <            1e-05
81                    G44U G66C C71A          s⁻¹          <            1e-05
82               A12G G37A G43A A52G          s⁻¹          <            1e-05
83                    C11A A12U G40U          s⁻¹          =         6.34e-05
84                         G13A U56C          s⁻¹          =          0.00021
85                     G9C A39G G40U          s⁻¹          <            1e-05
86                         U45C C71U          s⁻¹          =          0.00338
87                         G32U U69G          s⁻¹          =         9.29e-05
88                    U31C A53G C70U          s⁻¹          =          0.00339
89                         A12G A33U          s⁻¹          <            1e-05
90                         A42U G44C          s⁻¹          <            1e-05
91                         A12U G40U          s⁻¹          =          0.00785
